Provenance of the data: ChEMBL document CHEMBL5042489

Property: log10 of IC50; scope: individual compounds
- Measurement target: Leucine-rich repeat serine/threonine-protein kinase 2 (Homo sapiens)
- Assay explanation: Displacement of K5 tracer from full length C-terminal NanoLuc fused human LRRK2 expressed in HEK293T cells incubated for 2 hrs by NanoBRET assay
Observation type: log10 of IC50 (log10 of the value in µM)

>>> df
                                 cpd_smiles  observation_type  numeric_value
0   Clc1cccc(-c2c[nH]c3ncnc(N4CCCCC4)c23)c1     log10 of IC50           0.06
1  CC(=O)NC1CCN(c2ncnc3[nH]cc(-c4cccc(Cl)c4)c23)CC1     log10 of IC50           0.14
2  CNC1CCN(c2ncnc3[nH]cc(-c4cccc(Cl)c4)c23)CC1     log10 of IC50           0.55
3      OCCCNc1ncnc2[nH]cc(-c3cccc(Cl)c3)c12     log10 of IC50           0.40
4   Clc1cccc(-c2c[nH]c3nccc(N4CCOCC4)c23)c1     log10 of IC50          -0.92
5    Fc1cccc(-c2c[nH]c3ncnc(N4CCOCC4)c23)c1     log10 of IC50          -0.61

====

- Measurement target: Serine/threonine-protein kinase 4 (Homo sapiens, UniProt Q13043)
- Sequence (Q13043 whole entry): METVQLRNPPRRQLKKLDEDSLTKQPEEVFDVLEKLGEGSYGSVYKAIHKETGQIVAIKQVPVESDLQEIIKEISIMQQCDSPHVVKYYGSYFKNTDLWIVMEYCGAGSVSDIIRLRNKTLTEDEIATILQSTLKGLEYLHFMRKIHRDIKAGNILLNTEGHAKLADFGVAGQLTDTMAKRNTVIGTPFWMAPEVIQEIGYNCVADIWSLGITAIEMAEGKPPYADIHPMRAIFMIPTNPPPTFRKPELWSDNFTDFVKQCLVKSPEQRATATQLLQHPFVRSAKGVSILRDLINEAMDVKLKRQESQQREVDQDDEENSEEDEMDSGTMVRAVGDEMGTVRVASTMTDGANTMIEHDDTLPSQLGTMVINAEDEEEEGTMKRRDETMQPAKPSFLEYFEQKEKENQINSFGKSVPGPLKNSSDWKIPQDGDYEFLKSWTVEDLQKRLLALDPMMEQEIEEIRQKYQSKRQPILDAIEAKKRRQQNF
With a cut-off of 40 nM, any IC50 strictly below it is called class 1; any IC50 meeting it or above is called class 0.

>>> print(df.to_string())
                                   molecule  classification
0      Cc1ccccc1-c1c[nH]c2ncnc(N3CCOCC3)c12         class 0
1   Clc1cccc(-c2n[nH]c3ncnc(N4CCOCC4)c23)c1         class 0
2    CN(CCO)c1ncnc2[nH]cc(-c3cccc(Cl)c3)c12         class 0
3  CC(CO)CN(C)c1ncnc2[nH]cc(-c3cccc(Cl)c3)c12 (centres undefined)         class 1
4   Clc1cccc(-c2c[nH]c3nccc(N4CCOCC4)c23)c1         class 0
5  OC1CCN(c2ncnc3[nH]cc(-c4cccc(Cl)c4)c23)CC1         class 0
6     c1ccc(-c2c[nH]c3ncnc(N4CCOCC4)c23)cc1         class 0
7   Clc1cccc(-c2c[nH]c3ncnc(N4CCOCC4)c23)c1         class 1
8  CC(=O)NC1CCN(c2ncnc3[nH]cc(-c4cccc(Cl)c4)c23)CC1         class 1

====

- Measurement target: Leucine-rich repeat serine/threonine-protein kinase 2 (Homo sapiens, UniProt Q5S007)
- Sequence (Q5S007 whole entry, the tested form may be a part): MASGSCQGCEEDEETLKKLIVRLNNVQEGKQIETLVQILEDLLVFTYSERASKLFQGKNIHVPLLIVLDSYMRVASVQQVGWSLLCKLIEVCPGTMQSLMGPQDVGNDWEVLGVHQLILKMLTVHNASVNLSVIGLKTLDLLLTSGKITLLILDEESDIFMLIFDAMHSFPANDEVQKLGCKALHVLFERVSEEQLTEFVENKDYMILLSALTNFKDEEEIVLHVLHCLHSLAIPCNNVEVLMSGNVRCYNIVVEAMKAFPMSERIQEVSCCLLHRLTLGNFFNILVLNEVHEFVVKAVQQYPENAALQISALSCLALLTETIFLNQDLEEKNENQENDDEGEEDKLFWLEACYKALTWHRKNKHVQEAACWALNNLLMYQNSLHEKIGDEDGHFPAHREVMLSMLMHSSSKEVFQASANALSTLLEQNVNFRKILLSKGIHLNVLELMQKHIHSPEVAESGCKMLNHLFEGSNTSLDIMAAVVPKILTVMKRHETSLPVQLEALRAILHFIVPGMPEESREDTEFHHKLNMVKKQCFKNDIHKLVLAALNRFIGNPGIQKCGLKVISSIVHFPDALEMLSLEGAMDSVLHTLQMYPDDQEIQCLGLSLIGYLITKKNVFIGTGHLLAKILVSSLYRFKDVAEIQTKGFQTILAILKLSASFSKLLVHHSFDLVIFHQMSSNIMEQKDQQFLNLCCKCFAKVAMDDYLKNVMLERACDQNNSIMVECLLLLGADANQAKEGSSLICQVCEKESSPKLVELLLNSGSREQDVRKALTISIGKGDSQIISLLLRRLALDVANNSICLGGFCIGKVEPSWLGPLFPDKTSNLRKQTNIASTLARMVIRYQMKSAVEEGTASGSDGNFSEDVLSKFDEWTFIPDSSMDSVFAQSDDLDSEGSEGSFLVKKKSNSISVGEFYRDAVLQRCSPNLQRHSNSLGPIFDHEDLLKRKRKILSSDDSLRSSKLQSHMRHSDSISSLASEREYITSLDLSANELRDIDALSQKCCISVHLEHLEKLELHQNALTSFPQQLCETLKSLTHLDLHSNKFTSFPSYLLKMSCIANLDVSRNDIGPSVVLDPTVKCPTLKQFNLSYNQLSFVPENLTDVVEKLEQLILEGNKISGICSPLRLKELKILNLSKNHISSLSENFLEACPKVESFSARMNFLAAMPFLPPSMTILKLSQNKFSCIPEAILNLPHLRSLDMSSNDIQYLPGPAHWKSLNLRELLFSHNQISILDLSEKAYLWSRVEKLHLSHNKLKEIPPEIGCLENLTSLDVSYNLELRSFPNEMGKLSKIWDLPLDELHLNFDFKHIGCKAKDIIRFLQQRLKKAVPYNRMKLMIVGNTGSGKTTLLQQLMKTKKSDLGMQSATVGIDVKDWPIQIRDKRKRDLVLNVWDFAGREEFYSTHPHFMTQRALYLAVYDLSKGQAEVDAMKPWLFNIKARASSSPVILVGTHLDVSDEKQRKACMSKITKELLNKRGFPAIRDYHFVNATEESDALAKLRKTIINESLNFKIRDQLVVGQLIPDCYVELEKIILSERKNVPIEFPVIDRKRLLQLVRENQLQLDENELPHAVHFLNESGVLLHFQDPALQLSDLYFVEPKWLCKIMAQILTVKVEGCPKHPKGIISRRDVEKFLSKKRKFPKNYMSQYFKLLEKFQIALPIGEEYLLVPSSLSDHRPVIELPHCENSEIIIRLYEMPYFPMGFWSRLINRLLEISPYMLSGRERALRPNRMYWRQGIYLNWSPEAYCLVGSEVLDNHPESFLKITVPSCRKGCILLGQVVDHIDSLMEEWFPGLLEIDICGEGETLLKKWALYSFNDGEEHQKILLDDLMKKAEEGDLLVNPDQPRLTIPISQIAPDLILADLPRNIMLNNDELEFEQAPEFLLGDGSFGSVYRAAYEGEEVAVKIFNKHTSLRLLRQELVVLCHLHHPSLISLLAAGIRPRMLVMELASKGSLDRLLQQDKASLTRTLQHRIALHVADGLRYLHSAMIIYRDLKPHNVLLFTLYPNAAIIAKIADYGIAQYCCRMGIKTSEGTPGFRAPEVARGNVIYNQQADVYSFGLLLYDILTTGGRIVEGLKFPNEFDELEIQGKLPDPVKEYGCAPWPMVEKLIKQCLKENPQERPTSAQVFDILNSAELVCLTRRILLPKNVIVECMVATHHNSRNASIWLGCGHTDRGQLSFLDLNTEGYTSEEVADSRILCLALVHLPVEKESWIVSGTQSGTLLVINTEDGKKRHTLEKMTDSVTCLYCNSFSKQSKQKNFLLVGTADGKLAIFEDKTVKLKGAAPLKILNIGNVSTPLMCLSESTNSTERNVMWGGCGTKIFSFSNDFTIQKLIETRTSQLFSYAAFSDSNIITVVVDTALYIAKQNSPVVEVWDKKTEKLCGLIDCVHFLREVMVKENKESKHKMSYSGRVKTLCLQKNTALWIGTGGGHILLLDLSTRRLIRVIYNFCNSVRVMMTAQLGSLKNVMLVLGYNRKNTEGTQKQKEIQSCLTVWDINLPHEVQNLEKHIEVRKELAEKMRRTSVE
- Assay explanation: Displacement of K5 tracer from full length C-terminal NanoLuc fused human LRRK2 expressed in HEK293T cells incubated for 2 hrs by NanoBRET assay
pIC50: −log10 of the molar value.
Recorded pIC50, one value per entry.
Observation type: pIC50

                                   compound                        measurement_target  observation_type  numeric_value
0  OC1CCN(c2ncnc3[nH]cc(-c4cccc(Cl)c4)c23)CC1  Leucine-rich repeat serine/threonine-protein kinase 2 (Homo sapiens, UniProt Q5S007)             pIC50           5.87
1  NC(=O)c1cccc(-c2c[nH]c3ncnc(N4CCOCC4)c23)c1  Leucine-rich repeat serine/threonine-protein kinase 2 (Homo sapiens, UniProt Q5S007)             pIC50           5.63
2   Clc1cccc(-c2c[nH]c3ncnc(N4CCOCC4)c23)c1  Leucine-rich repeat serine/threonine-protein kinase 2 (Homo sapiens, UniProt Q5S007)             pIC50           6.58
3  N#Cc1cccc(-c2c[nH]c3ncnc(N4CCOCC4)c23)c1  Leucine-rich repeat serine/threonine-protein kinase 2 (Homo sapiens, UniProt Q5S007)             pIC50           7.08
4  CC(CO)CN(C)c1ncnc2[nH]cc(-c3cccc(Cl)c3)c12 (configuration not stated)  Leucine-rich repeat serine/threonine-protein kinase 2 (Homo sapiens, UniProt Q5S007)             pIC50           5.15
5    Cc1cccc(-c2c[nH]c3ncnc(N4CCOCC4)c23)c1  Leucine-rich repeat serine/threonine-protein kinase 2 (Homo sapiens, UniProt Q5S007)             pIC50           6.90
6    CN(CCO)c1ncnc2[nH]cc(-c3cccc(Cl)c3)c12  Leucine-rich repeat serine/threonine-protein kinase 2 (Homo sapiens, UniProt Q5S007)             pIC50           5.82

====

- Assay explanation: Drug concentration in C57BL/6 mouse liver at 10 mg/kg, ip administered for 1 hr
- Type: ADME, organism-based
- Condition description: read-out: Ct
Observation type: concentration at 1 h (µM)

>>> print(df.to_string())
                                 cpd_smiles  numeric_value
0  NC(=O)c1cccc(-c2c[nH]c3ncnc(N4CCOCC4)c23)c1             28

====

The next entries give measured IC50 for Serine/threonine-protein kinase 3 (Homo sapiens, UniProt Q13188).
Observation type: IC50 (nM)

In [3]: df
Out[3]:
                                   molecule  numeric_value
0      OCCCNc1ncnc2[nH]cc(-c3cccc(Cl)c3)c12            668
1  CC(=O)NC1CCN(c2ncnc3[nH]cc(-c4cccc(Cl)c4)c23)CC1            139
2  CC(CO)CN(C)c1ncnc2[nH]cc(-c3cccc(Cl)c3)c12 (stereo not given)            289
3    CN(CCO)c1ncnc2[nH]cc(-c3cccc(Cl)c3)c12            631
4  OC1CCN(c2ncnc3[nH]cc(-c4cccc(Cl)c4)c23)CC1            433

====

# pIC50 per record follows
- Measurement target: Serine/threonine-protein kinase 3 (Homo sapiens, UniProt Q13188)
- Sequence (Q13188 whole entry): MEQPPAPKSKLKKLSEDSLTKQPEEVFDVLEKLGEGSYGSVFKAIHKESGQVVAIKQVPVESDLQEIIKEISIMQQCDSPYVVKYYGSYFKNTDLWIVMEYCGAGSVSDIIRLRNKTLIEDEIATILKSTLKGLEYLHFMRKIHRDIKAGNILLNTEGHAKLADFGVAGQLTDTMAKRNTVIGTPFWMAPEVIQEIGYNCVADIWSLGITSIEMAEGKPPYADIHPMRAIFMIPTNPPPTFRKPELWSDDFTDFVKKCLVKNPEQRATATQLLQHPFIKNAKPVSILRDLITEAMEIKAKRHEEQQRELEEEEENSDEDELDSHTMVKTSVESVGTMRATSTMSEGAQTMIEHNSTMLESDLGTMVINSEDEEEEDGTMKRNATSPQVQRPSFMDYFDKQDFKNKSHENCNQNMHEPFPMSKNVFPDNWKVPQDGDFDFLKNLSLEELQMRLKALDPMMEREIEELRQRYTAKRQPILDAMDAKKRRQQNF
pIC50: −log10 of the molar value.
Observation type: pIC50

>>> df
                                  cpd_smiles  limit_sign  numeric_value
 0   Clc1cccc(-c2c[nH]c3ccnc(N4CCOCC4)c23)c1           <           5.00
 1      Clc1cccc(-c2csc3ncnc(N4CCOCC4)c23)c1           <           5.00
 2  CC1(O)CCN(c2ncnc3[nH]cc(-c4cccc(Cl)c4)c23)CC1           =           6.72
 3    CN(CCO)c1ncnc2[nH]cc(-c3cccc(Cl)c3)c12           =           6.93
 4      c1csc(-c2c[nH]c3ncnc(N4CCOCC4)c23)c1           =           6.57
 5   Clc1cccc(-c2c[nH]c3ncnc(N4CCCCC4)c23)c1           =           6.78
 6    Cc1cccc(-c2c[nH]c3ncnc(N4CCOCC4)c23)c1           =           6.92
 7      c1coc(-c2c[nH]c3ncnc(N4CCOCC4)c23)c1           =           6.31
 8     c1ccc(-c2c[nH]c3ncnc(N4CCOCC4)c23)cc1           =           6.71
 9      Clc1cccc(-c2coc3ncnc(N4CCOCC4)c23)c1           <           5.00
10      Fc1ccccc1-c1c[nH]c2ncnc(N3CCOCC3)c12           =           6.25
11      c1nc(N2CCOCC2)c2c(-c3ccoc3)c[nH]c2n1           =           6.01
12      CN(C)c1ncnc2[nH]cc(-c3cccc(Cl)c3)c12           =           6.46
13      Cc1ccccc1-c1c[nH]c2ncnc(N3CCOCC3)c12           =           5.16
